System: HL60 (Human promyelocytic leukemia cells)
Experiment: MTT cell proliferation assay in HL60 cell line
Format: cell-based
Conditions: HL-60, treated 72 hr or 96 hr
pIC50: −log10 of the molar value.
Parameter measured: pIC50

Please report the recorded pIC50 for CN(C)S(=O)(=O)c1cn(-c2nccs2)c2nc(N3CCN(c4ccccn4)CC3)ccc2c1=O .
< 5.00

Which pIC50 is listed for N[C@@H]1CCN(c2ccc3c(=O)c(S(=O)(=O)N4CCCCC4)cn(-c4nccs4)c3n2)C1 ?
> 5.52

For the molecule shown here, CN(C)S(=O)(=O)c1cn(-c2nccs2)c2nc(N3CC[C@@H](N)C3)ccc2c1=O , give the reported pIC50.
> 5.52

Given the molecule CN1CCN(c2cnc3c(=O)c(C(=O)O)cn(-c4nccs4)c3n2)CC1 , what is its reported pIC50?
< 5.00

State the recorded pIC50 for this entry: CCN(CC)C1CCN(c2ccc3c(=O)c(S(=O)(=O)N4CCCCC4)cn(-c4nccs4)c3n2)C1 (centres unmarked)
> 5.52

Given N[C@@H]1CCN(c2cnc3c(=O)c(C(=O)O)cn(-c4nccs4)c3n2)C1 , state its recorded pIC50.
< 5.00

What value of measured pIC50 is listed for COC1CCN(c2cnc3c(=O)c(C(=O)O)cn(-c4nccs4)c3n2)C1 (centres unmarked) ?
< 5.00

# lookup: pIC50 of O=c1c(S(=O)(=O)N2CCCCC2)cn(-c2nccs2)c2nc(N3CCCC3)ccc12
< 5.00

Look at this molecule and give its reported pIC50. CN[C@H]1CN(c2ccc3c(=O)c(S(=O)(=O)N(C)C)cn(-c4nccs4)c3n2)C[C@@H]1OC
> 5.52

Query (molecule): COC[C@H]1CCCN1c1cnc2c(=O)c(C(=O)O)cn(-c3nccs3)c2n1 ; field requested: pIC50
< 5.00

What does the data say about its pIC50? Entry: C[C@@H]1CN(c2ccc3c(=O)c(S(=O)(=O)N(C)C)cn(-c4nccs4)c3n2)CCN1
< 5.00

Param item = CN(C)S(=O)(=O)c1cn(-c2nccs2)c2nc(N3CCCC3)ccc2c1=O ; retrieve measured pIC50.
< 5.00

Value lookup for pIC50; key = CN(C)S(=O)(=O)c1cn(-c2nccs2)c2nc(N3CCNCC3)ccc2c1=O
5.00 to 5.52

# query: pIC50 of entry CN1CCN(c2ccc3c(=O)c(S(=O)(=O)N4CCCCC4)cn(-c4nccs4)c3n2)CC1
< 5.00

I have this molecule here, O=C(O)c1cn(-c2nccs2)c2nc(N3CCC(O)C3)cnc2c1=O (centres unmarked) , and I need its recorded pIC50.
< 5.00

If you can, please state the reported pIC50 value of CN(C)[C@@H]1CCN(c2ccc3c(=O)c(S(=O)(=O)N4CCCCC4)cn(-c4nccs4)c3n2)C1 .
> 5.52

For the molecule O=c1c(S(=O)(=O)N2CCCCC2)cn(-c2nccs2)c2nc(N3CCNCC3)ccc12 , what pIC50 is on record?
> 5.52

Requested read-out: pIC50. Entry: CC(C)(C)OC(=O)N1CCN(c2cnc3c(=O)c(C(=O)O)cn(-c4nccs4)c3n2)CC1
< 5.00

Would you kindly share the measured pIC50 for C[C@@H]1CN(c2ccc3c(=O)c(S(=O)(=O)N4CCCCC4)cn(-c4nccs4)c3n2)C[C@H](C)N1 ?
> 5.52

I am curious: what pIC50 value has been reported for O=C(O)c1cn(-c2nccs2)c2nc(N3CCCC3)cnc2c1=O ?
5.00 to 5.52

Looking for the measured pIC50 of C[C@@H]1CN(c2ccc3c(=O)c(S(=O)(=O)N(C)C)cn(-c4nccs4)c3n2)C[C@H](C)N1 , can you help?
5.00 to 5.52

Given the entry O=C(O)c1cn(-c2nccs2)c2nc(N3CCN(c4ccccn4)CC3)cnc2c1=O , report its measured pIC50.
< 5.00

Entry CN(C)S(=O)(=O)c1cn(-c2nccs2)c2nc(N3CCOCC3)ccc2c1=O : reported pIC50 = ?
< 5.00

Given CC1CCCN1c1cnc2c(=O)c(C(=O)O)cn(-c3nccs3)c2n1 (centres unmarked) , state its recorded pIC50.
< 5.00

// pIC50 lookup, key: O=C(O)c1cn(-c2nccs2)c2nc(N3CCN(C4CCCCC4)CC3)cnc2c1=O
< 5.00

pIC50 lookup needed for CN[C@H]1CN(c2ccc3c(=O)c(S(=O)(=O)N4CCCCC4)cn(-c4nccs4)c3n2)C[C@@H]1OC , thanks.
> 5.52

Would you mind telling me what pIC50 value was observed for CN(C)S(=O)(=O)c1cn(-c2nccs2)c2nc(N3CCC(N4CCCC4)CC3)ccc2c1=O ?
5.00 to 5.52

What pIC50 value was documented for this molecule, CN(C)S(=O)(=O)c1cn(-c2nccs2)c2nc(N3CCN(C4CCCCC4)CC3)ccc2c1=O ?
5.00 to 5.52

Please report the recorded pIC50 for COC[C@H]1CCCN1c1ccc2c(=O)c(S(=O)(=O)N3CCCCC3)cn(-c3nccs3)c2n1 .
< 5.00

What pIC50 value was documented for this molecule, O=c1c(S(=O)(=O)N2CCCCC2)cn(-c2nccs2)c2nc(N3CCN(c4cccnc4)CC3)ccc12 ?
5.00 to 5.52

Given O=c1c(S(=O)(=O)N2CCCCC2)cn(-c2nccs2)c2nc(N3CCN(C4CCCCC4)CC3)ccc12 , state its recorded pIC50.
> 5.52

What does the record list as pIC50 for O=C(O)c1cn(-c2nccs2)c2nc(N3CCNCC3)cnc2c1=O ?
< 5.00

May I ask what pIC50 has been recorded for CCN(CC)C1CCN(c2cnc3c(=O)c(C(=O)O)cn(-c4nccs4)c3n2)C1 (centres unmarked) ?
< 5.00

pIC50 lookup needed for COC[C@@H]1CCCN1c1ccc2c(=O)c(S(=O)(=O)N3CCCCC3)cn(-c3nccs3)c2n1 , thanks.
< 5.00

State the recorded pIC50 for this entry: COC[C@@H]1CCCN1c1cnc2c(=O)c(C(=O)O)cn(-c3nccs3)c2n1
< 5.00

Which pIC50 is listed for COC[C@@H]1CCCN1c1ccc2c(=O)c(S(=O)(=O)N(C)C)cn(-c3nccs3)c2n1 ?
< 5.00

Using the record for CN[C@H]1CN(c2cnc3c(=O)c(C(=O)O)cn(-c4nccs4)c3n2)C[C@@H]1OC , report its pIC50.
< 5.00

# input molecule: O=C(O)c1cn(-c2nccs2)c2nc(N3CCOCC3)cnc2c1=O ; wanted: its pIC50
< 5.00
